biological target: T1, Anti-CD28 Fab (SEQ ID NOs: 696, 697); assay: phage binding ELISA; biotinylated anti-CD28 Fab on neutravidin plate, clonal phage detected with anti-M13 HRP
T1 construct: In the phage ELISA the Fab was biotinylated and captured on neutravidin coated plates
T1 sequence (VH, as listed by the source, chain 1 of 2): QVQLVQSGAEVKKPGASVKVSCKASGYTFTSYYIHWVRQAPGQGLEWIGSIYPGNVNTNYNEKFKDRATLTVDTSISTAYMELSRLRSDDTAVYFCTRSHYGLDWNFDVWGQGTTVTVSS
T1 sequence (VL, as listed by the source, chain 2 of 2): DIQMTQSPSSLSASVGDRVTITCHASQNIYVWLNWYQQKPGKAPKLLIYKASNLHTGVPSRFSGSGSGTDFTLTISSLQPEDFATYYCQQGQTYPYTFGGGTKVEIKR
Where no end group is shown, it is not given here.
Known Anti-CD28 Fab signal (phage binding ELISA) of a selection of binders
value.type: Anti-CD28 Fab signal (phage binding ELISA)

{"binder": "YCEGHLPEYMIKCI (cysteine pairing not given here; also: displayed as fusion to phage pIII, linker not given here) [Phage-1083]", "result.value": 1.36}
{"binder": "YCDGHAPEYIQKCL (cysteine pairing not given here; also: displayed as fusion to phage pIII, linker not given here) [Phage-1075]", "result.value": 1.38}
{"binder": "YCAGHTSEYMSKCL (cysteine pairing not given here; also: displayed as fusion to phage pIII, linker not given here) [Phage-1084]", "result.value": 1.36}
{"binder": "YCDGHMKEYMLKCL (cysteine pairing not given here; also: displayed as fusion to phage pIII, linker not given here) [Phage-1085]", "result.value": 1.36}
{"binder": "YCDGHQPQYMSKCL (cysteine pairing not given here; also: displayed as fusion to phage pIII, linker not given here) [Phage-1078]", "result.value": 1.38}
